procedure-summary: In vivo pharmacokinetics in ICR mice
experimental-context: mouse, plasma, PO, 10 mg/kg intragastric, read-out: AUC(0-t)
Attribute: AUC(0-t)

Query: Query (compound): `Cc1cc2cc(n1)-c1cnn(C)c1OCCC[C@@H](C1CC1)CN1/C(=N/C2=O)Nc2ccc(N[C@@H](C)CN(C)C)cc21` ; field requested: AUC(0-t)
Response: 2040 ng·h/mL

Query: Query (compound): `Cc1cc2cc(n1)-c1cnn(C)c1OCCC[C@@H](C1CC1)CN1/C(=N/C2=O)Nc2ccc(N(C)C3CCN(C)CC3)cc21` ; field requested: AUC(0-t)
Response: 826 ng·h/mL

Query: Query (compound): `Cc1cc2cc(n1)-c1cnn(C)c1OCCC[C@@H](C1CC1)CN1/C(=N/C2=O)Nc2cc(NC3(C)COC3)ccc21` ; field requested: AUC(0-t)
Response: 3620 ng·h/mL
